system: NCI-H1755 (Lung Adenocarcinoma); test: Bliss excess, mean over the matrix (fraction); higher = more synergy;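 further: after 72 h of two-drug dosing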
propertyMeasured: Bliss excess

compound	propertyMeasured	result
CS(=O)(=O)CCNCc1ccc(-c2ccc3ncnc(Nc4ccc(OCc5cccc(F)c5)c(Cl)c4)c3c2)o1 [Lapatinib] + C[C@@H](Oc1cc(-c2cnn(C3CCNCC3)c2)cnc1N)c1c(Cl)ccc(F)c1Cl [Crizotinib] (first compound max 10 µM, 7x7, partner max 10 µM)	Bliss excess	-0.0468
NC1(C(=O)N[C@@H](CCO)c2ccc(Cl)cc2)CCN(c2ncnc3[nH]ccc23)CC1 [Capivasertib] + CCN(CCO)CCCOc1ccc2c(Nc3cc(CC(=O)Nc4cccc(F)c4)[nH]n3)ncnc2c1 [AZD2811] (first compound max 10 µM, 7x7, partner max 1 µM)	Bliss excess	-0.0289
C[C@@H]1COCCN1c1cc(C2([S@](C)(=N)=O)CC2)nc(-c2ccnc3[nH]ccc23)n1 [AZD6738] + C1CC(C1)(C(=O)[O-])C(=O)[O-].N.N.[Pt+2] [Carboplatin] (first compound max 10 µM, 7x7, partner max 10 µM)	Bliss excess	-0.0571
CCN(CCO)CCCOc1ccc2c(Nc3cc(CC(=O)Nc4cccc(F)c4)[nH]n3)ncnc2c1 [AZD2811] + O=C(c1cc(Cc2n[nH]c(=O)c3ccccc23)ccc1F)N1CCN(C(=O)C2CC2)CC1 [Olaparib] (first compound max 1 µM, 7x7, partner max 10 µM)	Bliss excess	0.0146
CN(CCO)CC[C@H](CSc1ccccc1)Nc1ccc(S(=O)(=O)NC(=O)c2ccc(N3CCC([C@@H](O)c4ccccc4-c4ccc(Cl)cc4)CC3)cc2)cc1S(=O)(=O)C(F)(F)F [AZD4320] + CN(C)CCCOc1ccc(-c2ccc3ncc4c(c3c2)n(C2CCOCC2)c(=O)n4C)cn1 [AZD0156] (first compound max 1 µM, 7x7, partner max 1 µM)	Bliss excess	-0.0164

// moving on: another record for Bliss excess
input: Assign Bliss excess to the following record: Cc1c2c(nn1C)CSCc1cc(n(C)n1)CSc1cc(c3ccccc3c1)OCCCc1c(C(=O)O)n(C)c3c-2c(Cl)ccc13 [AZD5991] + Nc1ccn([C@@H]2O[C@H](CO)[C@@H](O)C2(F)F)c(=O)n1 [Gemcitabine] (first compound max 1 µM, 7x7, partner max 0.3 µM)
output: 0.0224

// data source = the supplement of paper PMC11061612
